# Experimental target: FLT3 Autoinh. (Homo sapiens, UniProt P36888)
# Sequence (P36888 564-993 limits assumed): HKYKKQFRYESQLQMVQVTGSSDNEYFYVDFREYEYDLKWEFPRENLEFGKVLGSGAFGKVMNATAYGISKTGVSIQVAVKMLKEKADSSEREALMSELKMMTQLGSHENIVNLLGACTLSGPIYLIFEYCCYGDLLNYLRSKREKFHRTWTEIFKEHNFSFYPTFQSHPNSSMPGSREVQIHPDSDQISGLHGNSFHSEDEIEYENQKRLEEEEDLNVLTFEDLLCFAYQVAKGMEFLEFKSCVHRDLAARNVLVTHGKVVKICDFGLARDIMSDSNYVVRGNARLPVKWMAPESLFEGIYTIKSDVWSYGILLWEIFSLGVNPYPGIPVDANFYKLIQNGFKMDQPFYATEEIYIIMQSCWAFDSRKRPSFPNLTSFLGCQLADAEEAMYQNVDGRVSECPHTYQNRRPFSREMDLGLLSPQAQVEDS
Quantity: Kd

The following molecules have reported results that may help.
>  <Molecule>
COc1cc2ncc(-c3nc(N[C@H]4CNCC[C@@H]4F)ncc3F)n2nc1C(C)(C)O [Compound 45a]

>  <Kd>
11 nM

$$$$
>  <Molecule>
COc1cc2ncc(-c3nc(N[C@H]4CNCC[C@@H]4F)ncc3F)n2nc1N1CCCS1(=O)=O [Compound 112a]

>  <Kd>
2.7 nM

$$$$
>  <Molecule>
CC(C)(O)c1cn2c(-c3nc(N[C@H]4CNCC[C@@H]4F)ncc3F)cnc2cn1 [Compound 100a]

>  <Kd>
57 nM

$$$$

Continue with the next molecule.
Exam item: Which Kd reading was recorded for the molecule "FC(F)COc1cc2ncc(-c3ccnc(N[C@H]4CNCC[C@@H]4F)n3)n2nc1C1CC1" ?
Marked response: 21 nM

###

# Experimental target: IRAK1 (Homo sapiens, UniProt P51617)
# Construct: purchased Reaction Biology (RBC HotSpot)
# Sequence (P51617 whole entry): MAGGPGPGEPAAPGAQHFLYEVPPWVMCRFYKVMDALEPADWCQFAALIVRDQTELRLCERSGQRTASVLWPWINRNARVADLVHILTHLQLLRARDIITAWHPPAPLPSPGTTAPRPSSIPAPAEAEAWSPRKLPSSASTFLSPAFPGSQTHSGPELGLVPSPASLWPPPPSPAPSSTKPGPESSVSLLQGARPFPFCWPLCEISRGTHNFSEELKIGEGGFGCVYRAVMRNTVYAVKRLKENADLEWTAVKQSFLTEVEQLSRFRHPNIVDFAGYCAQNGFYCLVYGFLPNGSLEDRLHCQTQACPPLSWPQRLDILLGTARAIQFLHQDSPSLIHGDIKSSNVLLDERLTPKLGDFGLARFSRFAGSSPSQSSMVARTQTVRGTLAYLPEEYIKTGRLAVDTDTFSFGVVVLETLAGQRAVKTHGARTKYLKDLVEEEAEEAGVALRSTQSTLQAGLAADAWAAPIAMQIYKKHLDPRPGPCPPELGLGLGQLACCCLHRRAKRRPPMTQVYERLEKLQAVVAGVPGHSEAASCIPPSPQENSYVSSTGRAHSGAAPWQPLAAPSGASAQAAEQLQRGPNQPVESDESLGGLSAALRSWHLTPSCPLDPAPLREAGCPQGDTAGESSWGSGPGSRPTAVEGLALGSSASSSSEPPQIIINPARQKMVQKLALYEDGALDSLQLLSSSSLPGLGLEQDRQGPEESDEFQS
# Experimental details: RBC HotSpot Kinase Assay, IRAK1
# Format: biochemical
# Test conditions: isolated kinase enzyme, 33P-ATP, P81 filter-binding
Quantity: IC50
The reply should read as a number followed by its unit.

The following compounds have reported results that may help.
>  <Compound>
COc1cc2ncc(-c3ccnc(N[C@H]4CNC[C@@H]4F)n3)n2nc1N1CC(F)(F)C1 [Compound 16a]

>  <Result>
245 nM

$$$$
>  <Compound>
COc1cc2ncc(-c3nc(N[C@H]4CNCC[C@@H]4F)ncc3F)n2nc1C(C)(C)O [Compound 45a]

>  <Result>
18 nM

$$$$
>  <Compound>
COc1cc2ncc(-c3nc(N[C@H]4CNC[C@@H]4F)ncc3F)n2nc1C1CCC1 [Compound 52a]

>  <Result>
0.8 nM

$$$$
>  <Compound>
CC(O)(c1ccc2ncc(-c3cncc(N[C@@H]4CCCNC4)n3)n2c1)C(F)(F)F (single isomer, unassigned) [Compound 28a]

>  <Result>
33 nM

$$$$
>  <Compound>
COc1cc2ncc(-c3nc(N[C@H]4CNCC[C@@H]4F)ncc3F)n2nc1C1(C)COC1 [Compound 70a]

>  <Result>
3 nM

$$$$
>  <Compound>
c1ncc(-c2cnc3cc(OC4CC4)c(C4CC4)nn23)nc1N[C@@H]1CCCNC1 [Compound 15a]

>  <Result>
258 nM

$$$$

Continue with the next compound.
Exam item: Which IC50 reading was recorded for the compound COc1cc2ncc(-c3nc(N[C@H]4CNC[C@@H]4F)ncc3Cl)n2nc1C1CC1 [Compound 101a] ?
Marked response: 24 nM

###

Catalogue of compounds with associated IC50
# Experimental target: UniProtKB Q9NWZ3
# Sequence (Q9NWZ3 whole entry): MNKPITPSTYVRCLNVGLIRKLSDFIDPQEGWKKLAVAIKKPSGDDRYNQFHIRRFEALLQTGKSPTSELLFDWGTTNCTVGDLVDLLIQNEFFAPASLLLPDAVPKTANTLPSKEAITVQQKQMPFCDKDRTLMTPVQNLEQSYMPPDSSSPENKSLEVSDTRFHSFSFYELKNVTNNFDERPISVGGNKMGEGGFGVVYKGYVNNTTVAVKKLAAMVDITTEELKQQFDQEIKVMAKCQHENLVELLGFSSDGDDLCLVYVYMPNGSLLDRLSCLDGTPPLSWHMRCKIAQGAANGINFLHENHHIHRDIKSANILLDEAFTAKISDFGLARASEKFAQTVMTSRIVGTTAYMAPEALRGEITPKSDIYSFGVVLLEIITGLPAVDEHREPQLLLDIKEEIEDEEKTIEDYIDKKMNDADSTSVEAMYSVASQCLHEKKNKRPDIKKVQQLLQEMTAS
# Experimental details: Reaction Biology NanoBRET target engagement assay in HEK-293 cells, IRAK4
# Assay type: cell-based
# Test conditions: live HEK-293 cells transfected with Kinase-NanoLuc fusion, 1 hour
Report only the number, with the unit nM understood.

>  <Compound>
COc1cc2ncc(-c3nc(N[C@H]4CNCC[C@@H]4F)ncc3F)n2nc1C(C)(C)O [Compound 45a]

>  <Unit annotation>
nM

>  <Number>
3

$$$$

Exam item: Which IC50 reading was recorded for the compound CC(O)(c1ccc2ncc(-c3ccnc(N[C@H]4CNCC[C@@H]4F)n3)n2c1)C(F)(F)F (single isomer, unassigned) [Compound 25a] ?
Marked response: 2

Exam item: Which IC50 reading was recorded for the compound FC(F)COc1cc2ncc(-c3ccnc(N[C@H]4CNCC[C@@H]4F)n3)n2nc1C1CC1 [Compound 4a] ?
Marked response: 0.8

###

# Experimental target: FLT3 (Homo sapiens)
# Experimental details: RBC HotSpot Kinase Assay, FLT3
# Format: biochemical
# Set-up: purchased Reaction Biology (RBC HotSpot)
# Test conditions: isolated kinase enzyme, 33P-ATP, P81 filter-binding
pIC50: −log10 of the molar value.
Quantity: pIC50

The following compounds have reported results that may help.
>  <Compound>
COc1cc2ncc(-c3nc(N[C@H]4CNC[C@@H]4F)ncc3F)n2nc1C1CCCC1 [Compound 61a]

>  <pIC50>
> 9.30

$$$$
>  <Compound>
C[C@@](O)(c1ccc2ncc(-c3ccnc(N[C@H]4CNCC[C@@H]4F)n3)n2c1)C(F)(F)F (single isomer, unassigned) [Compound 27a]

>  <pIC50>
> 9.30

$$$$
>  <Compound>
COc1cc2ncc(-c3nc(N[C@H]4CNC[C@@H]4F)ncc3F)n2nc1C12CC(C1)C2 [Compound 67a]

>  <pIC50>
> 9.30

$$$$
>  <Compound>
COc1cnc(N[C@@H]2CCCNC2)nc1-c1cnc2cc(OC)c(C3CC3)nn12 [Compound 105a]

>  <pIC50>
7.48

$$$$
>  <Compound>
CC(O)(c1ccc2ncc(-c3nc(N[C@H]4CNCC[C@@H]4F)ncc3F)n2c1)C(F)(F)F (single isomer, unassigned) [Compound 35a]

>  <pIC50>
> 9.30

$$$$
>  <Compound>
CC(O)(c1cn2c(-c3nc(N[C@H]4CNCC[C@@H]4F)ncc3F)cnc2cn1)C(F)(F)F (single isomer, unassigned) [Compound 134a]

>  <pIC50>
> 9.30

$$$$
>  <Compound>
COc1cc2ncc(-c3ccnc(N[C@H]4CNC[C@@H]4F)n3)n2nc1C1CC2(CCC2)C1 [Compound 75a]

>  <pIC50>
> 9.30

$$$$
>  <Compound>
COc1cc2ncc(-c3ccnc(N[C@@H]4CCCNC4)n3)n2nc1C1CC2(CCC2)C1 [Compound 76a]

>  <pIC50>
> 9.30

$$$$
>  <Compound>
COc1cc2ncc(-c3ccnc(N[C@H]4CNCC[C@@H]4F)n3)n2nc1[C@H]1C[C@@H](O)C1 [Compound 127a]

>  <pIC50>
> 9.30

$$$$
>  <Compound>
CC(O)(c1ccc2ncc(-c3cncc(N[C@H]4CNCC[C@@H]4F)n3)n2c1)C(F)(F)F (single isomer, unassigned) [Compound 31a]

>  <pIC50>
9.00

$$$$

Continue with the next compound.
Exam item: Which pIC50 reading was recorded for the compound Fc1cnc(N[C@@H]2CCCNC2)nc1-c1cnc2cnc(C3COC3)cn12 [Compound 118a] ?
Marked response: 8.15

###

# Experimental target: FLT3 (Homo sapiens)
# Experimental details: RBC HotSpot Kinase Assay, FLT3
# Format: biochemical
# Parameters: purchased Reaction Biology (RBC HotSpot)
# Test conditions: isolated kinase enzyme, 33P-ATP, P81 filter-binding
pIC50: −log10 of the molar value.
Catalogue of compounds with associated pIC50

>  <Compound>
COc1cc2ncc(-c3nc(N[C@H]4CNCC[C@@H]4F)ncc3Cl)n2nc1C1CC1 [Compound 103a]

>  <pIC50>
9.15

$$$$
>  <Compound>
COc1cc2ncc(-c3ccnc(N[C@H]4CNC[C@@H]4F)n3)n2nc1C(C)(C)O [Compound 41a]

>  <pIC50>
9.00

$$$$
>  <Compound>
COc1cc2ncc(-c3ccnc(N[C@@H]4CCCNC4)n3)n2nc1C12CC(C1)C2 [Compound 90a]

>  <pIC50>
> 9.30

$$$$
>  <Compound>
COc1cc2ncc(-c3nc(N[C@H]4CNCC[C@@H]4F)ncc3F)n2nc1C1CC1

>  <pIC50>
9.30

$$$$

Continue with the next compound.
Exam item: Which pIC50 reading was recorded for the compound "FC(F)COc1cc2ncc(-c3cncc(N[C@@H]4CCCNC4)n3)n2nc1C1CC1" ?
Marked response: > 9.30

###

# Experimental target: FLT3 D835Y (Homo sapiens, UniProt P36888, D835Y)
# Experimental details: DiscoverX KINOMEscan competition binding assay, FLT3 D835Y
# Test conditions: 11-point 3-fold dilution
Quantity: Kd

The following compounds have reported results that may help.
>  <Compound>
CC(C)(O)c1ccc2ncc(-c3nc(N[C@H]4CNCC[C@@H]4F)ncc3F)n2c1 [Compound 46a]

>  <Experimental target>
FLT3 D835Y (Homo sapiens, UniProt P36888, D835Y)

>  <Kd>
0.26 nM

$$$$
>  <Compound>
COc1cc2ncc(-c3nc(N[C@H]4CNCC[C@@H]4F)ncc3F)n2nc1C1CC1

>  <Experimental target>
FLT3 D835Y (Homo sapiens, UniProt P36888, D835Y)

>  <Kd>
0.23 nM

$$$$
>  <Compound>
COc1cc2ncc(-c3nc(N[C@H]4CNCC[C@@H]4F)ncc3F)n2nc1C1COC1 [Compound 92a]

>  <Experimental target>
FLT3 D835Y (Homo sapiens, UniProt P36888, D835Y)

>  <Kd>
< 0.17 nM

$$$$
>  <Compound>
COc1cc2ncc(-c3nc(N[C@H]4CNCC[C@@H]4F)ncc3F)n2nc1C(C)(C)O [Compound 45a]

>  <Experimental target>
FLT3 D835Y (Homo sapiens, UniProt P36888, D835Y)

>  <Kd>
0.2 nM

$$$$
>  <Compound>
CC(C)(O)c1cn2c(-c3nc(N[C@H]4CNCC[C@@H]4F)ncc3F)cnc2cn1 [Compound 100a]

>  <Experimental target>
FLT3 D835Y (Homo sapiens, UniProt P36888, D835Y)

>  <Kd>
2.4 nM

$$$$
>  <Compound>
COc1cc2ncc(-c3nc(N[C@H]4CNCC[C@@H]4F)ncc3F)n2nc1N1CCCS1(=O)=O [Compound 112a]

>  <Experimental target>
FLT3 D835Y (Homo sapiens, UniProt P36888, D835Y)

>  <Kd>
< 0.17 nM

$$$$

Continue with the next compound.
Exam item: Which Kd reading was recorded for the compound "FC(F)COc1cc2ncc(-c3ccnc(N[C@H]4CNCC[C@@H]4F)n3)n2nc1C1CC1" ?
Marked response: 0.42 nM
